Assay: yeast display, Sf9 membrane polyspecificity reagent, FACS + sequencing; frameworks hold sequencing errors
property: polyreactivity (PSR sort gate)

QVQLVESGGGLVQAGGSLRLSCAASGYTFPQYAMGWYRQAPGKERELVAAITRRGGSTYYADSVKGRFTISRDNAKNTVYLQMNSLKPEDTAVYYCASDSYPYSLGGDYWGQGTQVTVSS | high polyreactivity
QVQLVETGGRLVQAGGSLRLSCAASGFTFHQYTMGWYRQAPGKESELVAAITGTGDTYYADSVKGRFTISRDNAKNTVNLQMNSLKPEDTAVYYCAADWVTYWYYKGFYYWGQGTQVTVSS | high polyreactivity

====

Assay: yeast display, Sf9 membrane polyspecificity reagent, FACS + sequencing; frameworks hold sequencing errors
property: polyreactivity (PSR sort gate)

Examples from the recorded data:
QVQLVESGGGLGQAGGSLRLSCAASGFTFYYNAMGWYRQAPGKERELVATIRGTGSTNYADSVKGRFTISRDNAKNTVYLQMNSLKTEDTAVYYCDAPVDYQGDYWGQGTQVTVSS | low polyreactivity
QVQLVESGGGLVQAGGSLRLSCAASGRTFTSNAMGWYRQAPGKEREFVAAITRSTGSTNYADSVKGRFTISRDNAKNTVYLQMNSLKPEDTAVYYCNAYLYYKGRYSRQYYYWGQGTQVTVSS | high polyreactivity
QVQLVESGGGLVQAGGSLRLSCAASGLTFRYYAMGWYRQAPGKERELVAAITRRGSTYYADSVKGRFTISRDNAKNSVYLQMNSLKPEDTAVYYGATVTGFHSSPLRDLDYWGQGTQVTVSS | high polyreactivity
QVQLVESGGGLVQAGGSRRLSCAASGRIFDTYTMGWYRQAPGKERELVAAITTGGSTYYADSVKGRFTISRDNAMNTVYLQMNSLKPEDTAVYYCAARYRSIIRYYYWGQGTQVTVSS | high polyreactivity
QVQLVESGGGLVQAGGSLRLSCAASGNIFGYNAMGWYRQAPGKERELVAAITSDGRTYYADSVKGRFTISRDNAKNTVYLQMNSLKPEDTAVYYCAADSSGYYWFNYWGQGTQVTVSS | low polyreactivity
QVQLVESGGGLVQAGGSLRLSCAASGSIFRKYVMGWYRQAPGKERELVAVISSGTGTYYADSVKGRFTISRDNAKYTVYLQMNSLKPEDTAVYYCSSKYFGKWYKYYYWGQGTQVTVSS | high polyreactivity
QVQLVESGGGLVQAGGSLRISCAASGSNSNANAMGWYRQAPGKQREFVADISRSRGRTYYADSVKGRFTISRDNAKYTVYLQMNSLKPEVTAVYYCAAGGFGAGNNYWGQGTQVTVSS | high polyreactivity
QVQLVESGGGLVQAGGSLRLSCAASGRIFLGNAMGWYRQAPGKERELVAAIDASGGSTYYADSVKGRFTISRDNAKNTVYLQMNSLKPEDTAVYYCNAEPRYYSGGHGYDYWGQGTQVTVSS | low polyreactivity

Looking up QVQRVESGGGLVQAGGSLRLSCAASGRIFPTNAMGWYRQAPGKERELVAAIPVSGGSTYYADSVKGRFTISRDNAKNTVYLQMNSLKPEDTAVYYCAADSSTYRFDYWGQGTQVTVSS , I found its polyreactivity (PSR sort gate) recorded as low polyreactivity

Notebook: QVQLVESGGGLVQAGGRLRLSCAASGSTFYRYAMGMYRPAPGKERELVAAINRSGVTTYYADSVKGRFTISRDNAKNTVYLQMNSLKPEDTAVYYCAAVLGRGLDYYYLGQGTQVTVSS , polyreactivity (PSR sort gate) read as high polyreactivity

# polyreactivity (PSR sort gate) (sequence: QVQLVESGGGLVQAGGSLRLSCAASGFTFVDYAMGWYRQAPGKERELVAAITVSGDSTYYADSVKGRFTISRDNAKNTVYLQMNSLKPEDTAVYYCAADPGYYDGGYWGQGTQVTVSS ) is low polyreactivity
